assay: chemical genetic growth profiling, strain panel (AID 1159580);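 also: tested at 20 µM; growth read once vehicle control cultures reached saturation at 30 °C; 1 = growth at the plate median or of vehicle wells; lower values mean less growth of the strain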; settings: S. cerevisiae deletion strains, growth OD, locus YBR229C, strain ROT2, hits give low values
Hit rate of the full screen: of about 5,500 compounds, about 2,000 (36%) were called active. Not shown: some 18% with an inconclusive outcome. The list shows a part of the results.
Binary label based on normalized growth with cut-off 1: below gives Met, not below gives Not met.

{"columns": ["Molecule", "Group Label"],
 "data": [
  ["CCCCCCCCCCCCCCCCCC(=O)OC(CC(=O)O)C[N+](C)(C)C (configuration not stated)", "Not met"],
  ["Cc1cc(OC(=O)c2c(C)cc(OC(=O)c3c(C)cc(O)cc3O)cc2O)cc(O)c1C(=O)O", "Not met"],
  ["O=C1NC(=O)/C(=C/c2ccc(OS(=O)(=O)c3ccc(Cl)cc3)cc2)N1", "Not met"],
  ["COc1cc2occc2c2oc(=O)ccc12", "Met"],
  ["Cc1onc(-c2ccc(Cl)cc2)c1-c1ccnn1C(=O)NC(C)C", "Met"],
  ["CC(CC(O)C1OC1(C)C)[C@@H]1CCC2(C)C3=CCC4C(C)(C)C(=O)CCC4(C)C3CC[C@@]12C (some centres not stated)", "Not met"],
  ["C=C(C)[C@H]1COc2cc3oc(=O)ccc3cc2O1", "Met"]
]}

====

test: chemical genetic growth profiling, strain panel (AID 1159580); conditions: S. cerevisiae deletion strains, growth OD, locus YGL078C, strain dbp3
About 2,000 (36%) of roughly 5,500 compounds were called active. Another 18% or so got no clear call; they are omitted. Cut-off read from the data, not from the text of the source: active = normalized growth mostly below about 0.91 (no sharp cut-off); inconclusive = no clear call, values can overlap the other calls; inactive = mostly above about 0.92. The list shows a part of the results.
Outcomes: true for active, false for inactive

{"columns": ["Molecule", "Group Label"],
 "data": [
  ["COc1ccc2ccc(=O)oc2c1", "false"],
  ["CC(C)N(CCC(C(N)=O)(c1ccccc1)c1ccccn1)C(C)C (configuration not stated)", "false"],
  ["CCC/C=C1\\OC(=O)C2=C1CCC=C2", "false"],
  ["C[N+](C)(C)CC(O)CC(=O)O (configuration not stated)", "false"],
  ["COc1c2ccoc2cc2oc(=O)ccc12", "true"],
  ["C[C@]12CCC3c4ccc(OS(=O)(=O)O)cc4CCC3C1CC[C@H]2O (some centres not stated)", "false"],
  ["COc1ccccc1/C=C\\C(=O)O", "false"]
]}

====

assay: chemical genetic growth profiling, strain panel (AID 1159580); settings: S. cerevisiae deletion strains, growth OD, locus YJL115W, strain asf1
Among all 5,500 compounds or so, about 2,000 (36%) were called active. Another 18% or so got no clear call; they are omitted. No stated cut-off is given here; in the data, active means normalized growth mostly below about 0.91 (no sharp cut-off); inconclusive means no clear call, values can overlap the other calls; inactive means mostly above about 0.92. The list shows a part of the results.
Outcomes: yes (1) (active), no (0) (inactive)

{"columns": ["Molecule", "Group Label"],
 "data": [
  ["CC(=O)OCC1=C(C(=O)O)N2C(=O)[C@@H](NC(=O)Cc3cccs3)[C@H]2SC1", "no (0)"],
  ["COc1ccc(Cl)cc1C(=O)NCCc1ccc(S(=O)(=O)NC(=O)NC2CCCCC2)cc1", "no (0)"],
  ["CC(C)N(CCC(C(N)=O)(c1ccccc1)c1ccccn1)C(C)C (centres undefined)", "yes (1)"],
  ["O=C1[O][Bi][O]c2ccccc21", "no (0)"]
]}

====

assay: chemical genetic growth profiling, strain panel (AID 1159580); conditions: S. cerevisiae deletion strains, growth OD, locus YJL187C, strain SWE1 (second series)
The campaign covered roughly 5,500 compounds. About 2,000 (36%) were called active. Inconclusive results (about 18%) are left out. Rule as the data show it: active = normalized growth mostly below about 0.91 (no sharp cut-off); inconclusive = no clear call, values can overlap the other calls; inactive = mostly above about 0.92. This is one part of the list.
Outcomes: YES for active, NO for inactive

{"columns": ["Molecule", "Group Label"],
 "data": [
  ["Cc1ccccc1OCC(O)CO (stereo unspecified)", "NO"],
  ["NC(=O)c1ncn([C@@H]2O[C@H](CO)[C@@H](O)[C@H]2O)n1", "NO"],
  ["CC[n+]1c(-c2ccccc2)c2cc(N)ccc2c2ccc(N)cc21", "YES"],
  ["COc1ccccc1/C=C\\C(=O)O", "NO"],
  ["Cc1cc(C2CCCCC2)n(O)c(=O)c1", "YES"],
  ["C=C[C@H]1CN2CC[C@H]1C[C@@H]2[C@@H](OC(=O)OCC)c1ccnc2ccc(OC)cc12", "NO"]
]}

====

assay: chemical genetic growth profiling, strain panel (AID 1159580);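 also: tested at 20 µM; growth read once vehicle control cultures reached saturation at 30 °C; 1 = growth at the plate median or of vehicle wells; lower values mean less growth of the strain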; settings: S. cerevisiae deletion strains, growth OD, locus YDR001C, strain nth1, hits give low values
Among all 5,500 compounds or so, about 2,000 (36%) were called active. Roughly 18% stayed inconclusive and do not appear here. This is one part of the list.

{"columns": ["Compound", "normalized growth"],
 "data": [
  ["OCC(O)C(O)C(O)C(O)C(O)CO (stereo not given)", 0.99],
  ["CC(=O)OCC1=C(C(=O)O)N2C(=O)[C@@H](NC(=O)Cc3cccs3)[C@H]2SC1", 1.02],
  ["O=C(O[C@@H]1Cc2c(O)cc(O)cc2O[C@@H]1c1cc(O)c(=O)c2c(O)c(O)cc([C@H]3Oc4cc(O)cc(O)c4C[C@H]3O)c2c1)c1cc(O)c(O)c(O)c1", 0.984],
  ["C[C@@H]1CC[C@@]2(OC1)O[C@H]1CC3C4CC[C@H]5C[C@@H](O)CC[C@]5(C)C4CC[C@]3(C)[C@H]1[C@@H]2C (stereo not given in full)", 0.997],
  ["C=C1CCC2(OC1)OC1CC3C4CC=C5CC(O)CC(O)C5(C)C4CCC3(C)C1C2C (stereo not given)", 1.01]
]}

====

We begin with a simple list: items and their reported normalized growth.
assay: chemical genetic growth profiling, strain panel (AID 1159580);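 also: tested at 20 µM; growth read once vehicle control cultures reached saturation at 30 °C; 1 = growth at the plate median or of vehicle wells; lower values mean less growth of the strain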; conditions: S. cerevisiae deletion strains, growth OD, locus YML016C, strain PPZ1, hits give low values
The whole screen tested about 5,500 compounds, of which about 2,000 (36%) were called active. Inconclusive results (about 18%) are left out. This is one part of the list.

{"columns": ["Compound", "normalized growth"],
 "data": [
  ["CC1(C)C(=O)C=C[C@@]2(C)C1C[C@@H](O)[C@]1(C)C2CC[C@@]2(C)[C@H](c3ccoc3)OC(=O)[C@H]3O[C@]321 (stereo partly specified)", 0.98],
  ["C[C@@H]([C@H](O)c1ccccc1)N(C)C", 1.01],
  ["COc1c2ccoc2cc2oc(=O)ccc12", 0.809],
  ["CNC(C)C(O)c1ccccc1 (stereo unspecified)", 1.01],
  ["CC12CCC3c4ccc(OC(=O)c5ccccc5)cc4CCC3C1CCC2O (stereo unspecified)", 1.01],
  ["C[C@@H]1O[C@@H](OC[C@H]2OC(Oc3c(-c4ccc(OCCO)c(OCCO)c4)oc4cc(OCCO)cc(O)c4c3=O)[C@H](O)[C@@H](O)[C@@H]2O)[C@H](O)[C@H](O)[C@H]1O (stereo partly specified)", 0.996],
  ["CC(=O)OC1CN2CCC1CC2 (stereo unspecified)", 0.981],
  ["CC[n+]1c(-c2ccccc2)c2cc(N)ccc2c2ccc(N)cc21", 0.885],
  ["COc1cc(OC)c2c(=O)c(O)c(-c3ccc(OC)c(OC)c3)oc2c1", 0.155],
  ["O=c1c(O)c(-c2cc(O)c(O)c(O)c2)oc2cc(O)cc(O)c12", 1],
  ["COc1ccc2ccc(=O)oc2c1", 1.02],
  ["NC(=NCCC[C@H](N)C(=O)O)N[N+](=O)[O-]", 1],
  ["CC(C)C1COc2cc3oc(=O)ccc3cc2O1 (stereo unspecified)", 0.381],
  ["CC(C)(O)[C@@H]1Cc2cc3ccc(=O)oc3cc2O1", 1.01],
  ["CC(=O)OCC1=C(C(=O)O)N2C(=O)[C@@H](NC(=O)Cc3cccs3)[C@H]2SC1", 0.996],
  ["CC(=O)O[C@@H]1CC(=O)[C@@]2(C)C(CC(=O)[C@]3(C)C2CC[C@@]2(C)[C@H](c4ccoc4)OC(=O)C4OC423)C1(C)C (stereo partly specified)", 1]
]}

====

assay: chemical genetic growth profiling, strain panel (AID 1159580);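 also: tested at 20 µM; growth read once vehicle control cultures reached saturation at 30 °C; 1 = growth at the plate median or of vehicle wells; lower values mean less growth of the strain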; details: S. cerevisiae deletion strains, growth OD, locus YER133W, strain GLC7
In all, about 5,500 compounds went through this assay and about 2,000 (36%) were called active. Inconclusive results (about 18%) are left out. Rule as the data show it: active = normalized growth mostly below about 0.91 (no sharp cut-off); inconclusive = no clear call, values can overlap the other calls; inactive = mostly above about 0.92. This is one part of the list.
Outcomes: y for active, n for inactive

{"columns": ["Entry Smiles", "Group Label"],
 "data": [
  ["FC(F)(F)c1cccc(NC(=S)NN=C2CCCCCC2)c1", "n"],
  ["Cc1cc(Cl)ccc1NNC(=O)c1sccc1Br", "n"],
  ["CC(C)(C)C(=O)NC(=S)N/N=C\\c1cc(Cl)cc(Cl)c1O", "y"],
  ["COc1ccccc1NC(=S)N/N=C\\c1ccccc1O", "n"],
  ["CCNC(=S)N/N=C\\c1cc(Cl)cc(Cl)c1O", "n"]
]}
